Molecular target: T1, hPRLR.mmh (soluble monomeric human PRLR) (human)
T1 construct: called soluble monomeric PRLR protein
T1 chain: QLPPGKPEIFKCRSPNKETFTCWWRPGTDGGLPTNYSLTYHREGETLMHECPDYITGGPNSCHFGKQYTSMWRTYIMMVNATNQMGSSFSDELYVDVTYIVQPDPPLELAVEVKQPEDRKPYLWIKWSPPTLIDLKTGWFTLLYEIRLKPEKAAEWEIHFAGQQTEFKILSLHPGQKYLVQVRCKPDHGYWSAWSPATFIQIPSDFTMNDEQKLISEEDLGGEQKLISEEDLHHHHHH
Experiment: SPR Biacore, 25 C, mAb capture
# T½ per entry
measurement.name: T½ (min)

| binder | measurement.name | scale.unit | readout.number |
| --- | --- | --- | --- |
| H1H6762P (antibody, human IgG1, V domains shown, Human IgG1 Fc (H1H)) VH: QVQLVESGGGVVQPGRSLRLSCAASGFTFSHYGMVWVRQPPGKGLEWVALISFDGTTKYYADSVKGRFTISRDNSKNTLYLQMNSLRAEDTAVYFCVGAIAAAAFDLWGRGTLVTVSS VL: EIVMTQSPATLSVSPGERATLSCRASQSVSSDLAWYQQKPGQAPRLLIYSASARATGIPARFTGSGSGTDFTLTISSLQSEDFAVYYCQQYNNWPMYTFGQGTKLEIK | T½ | min | 64 |
| H1H6975N (antibody, human IgG1, V domains shown, Tested with human IgG1 Fc (H1H); also called H2M6975N) VH: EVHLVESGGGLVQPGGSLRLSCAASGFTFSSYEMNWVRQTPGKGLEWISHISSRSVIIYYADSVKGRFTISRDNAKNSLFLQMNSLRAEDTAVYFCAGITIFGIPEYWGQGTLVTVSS VL: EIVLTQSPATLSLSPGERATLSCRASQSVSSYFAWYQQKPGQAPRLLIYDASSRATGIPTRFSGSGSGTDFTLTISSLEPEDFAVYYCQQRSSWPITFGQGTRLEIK | T½ | min | 157 |
| H1H6790P (antibody, human IgG1, V domains shown, Human IgG1 Fc (H1H)) VH: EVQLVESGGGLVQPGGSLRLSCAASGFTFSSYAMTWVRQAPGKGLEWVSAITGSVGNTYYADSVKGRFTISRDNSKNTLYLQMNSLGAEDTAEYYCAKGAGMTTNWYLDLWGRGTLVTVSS VL: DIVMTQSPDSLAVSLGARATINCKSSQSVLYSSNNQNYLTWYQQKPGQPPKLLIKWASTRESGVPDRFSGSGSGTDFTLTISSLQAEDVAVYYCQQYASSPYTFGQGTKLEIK | T½ | min | 14 |
| H1H6801P (antibody, human IgG1, V domains shown, Human IgG1 Fc (H1H)) VH: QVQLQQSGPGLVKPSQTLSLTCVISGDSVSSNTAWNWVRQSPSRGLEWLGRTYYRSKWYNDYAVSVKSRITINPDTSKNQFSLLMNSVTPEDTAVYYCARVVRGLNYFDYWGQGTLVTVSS VL: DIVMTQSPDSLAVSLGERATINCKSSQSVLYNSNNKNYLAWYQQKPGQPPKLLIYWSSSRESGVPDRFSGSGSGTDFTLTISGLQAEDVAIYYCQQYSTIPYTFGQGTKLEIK | T½ | min | 15 |
| H1H6803P (antibody, human IgG1, V domains shown, Human IgG1 Fc (H1H)) VH: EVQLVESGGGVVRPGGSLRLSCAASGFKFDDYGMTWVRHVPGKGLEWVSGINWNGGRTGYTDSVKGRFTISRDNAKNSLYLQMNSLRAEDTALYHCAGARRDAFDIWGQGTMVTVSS VL: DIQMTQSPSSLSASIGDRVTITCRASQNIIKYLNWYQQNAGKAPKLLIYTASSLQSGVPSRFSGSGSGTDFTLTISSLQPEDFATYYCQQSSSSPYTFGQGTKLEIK | T½ | min | 84 |
| H1H6976N (antibody, human IgG1, V domains shown, Tested with human IgG1 Fc (H1H); also called H2M6976N) VH: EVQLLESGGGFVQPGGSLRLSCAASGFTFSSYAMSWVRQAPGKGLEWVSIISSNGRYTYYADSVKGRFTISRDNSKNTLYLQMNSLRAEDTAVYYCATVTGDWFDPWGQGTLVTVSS VL: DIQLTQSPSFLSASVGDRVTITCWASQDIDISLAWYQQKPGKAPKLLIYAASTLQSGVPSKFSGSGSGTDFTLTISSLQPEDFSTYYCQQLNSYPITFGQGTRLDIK | T½ | min | 13.4 |
| H1H6959N2 (antibody, human IgG1, V domains shown, Tested with human IgG1 Fc (H1H); also called H2M6959N2) VH: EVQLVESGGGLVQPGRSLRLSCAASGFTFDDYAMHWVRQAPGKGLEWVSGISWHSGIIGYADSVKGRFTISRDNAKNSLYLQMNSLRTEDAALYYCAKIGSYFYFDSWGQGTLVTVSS VL: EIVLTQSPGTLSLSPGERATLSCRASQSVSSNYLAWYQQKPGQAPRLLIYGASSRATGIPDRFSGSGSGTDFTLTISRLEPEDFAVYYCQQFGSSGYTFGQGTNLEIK | T½ | min | 0.3 |
| H1H6958N2 (antibody, human IgG1, V domains shown, Tested with human IgG1 Fc (H1H); also called H2M6958N2) VH: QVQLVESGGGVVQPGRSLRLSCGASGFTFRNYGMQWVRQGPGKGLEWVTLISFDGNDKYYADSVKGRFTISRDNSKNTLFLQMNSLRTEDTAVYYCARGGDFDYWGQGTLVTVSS VL: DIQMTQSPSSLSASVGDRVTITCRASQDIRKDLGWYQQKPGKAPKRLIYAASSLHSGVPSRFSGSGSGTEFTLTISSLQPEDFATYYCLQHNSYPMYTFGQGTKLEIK | T½ | min | 42.5 |
| H1H6967N (antibody, human IgG1, V domains shown, Tested with human IgG1 Fc (H1H); also called H2M6967N) VH: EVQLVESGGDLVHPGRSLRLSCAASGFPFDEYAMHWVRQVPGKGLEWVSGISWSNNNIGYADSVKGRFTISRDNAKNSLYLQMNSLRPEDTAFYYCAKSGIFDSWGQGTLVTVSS VL: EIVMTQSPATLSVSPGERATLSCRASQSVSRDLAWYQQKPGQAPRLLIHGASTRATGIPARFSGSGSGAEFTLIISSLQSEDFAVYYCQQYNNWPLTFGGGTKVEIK | T½ | min | 34.8 |
| H1H6782P (antibody, human IgG1, V domains shown, Human IgG1 Fc (H1H)) VH: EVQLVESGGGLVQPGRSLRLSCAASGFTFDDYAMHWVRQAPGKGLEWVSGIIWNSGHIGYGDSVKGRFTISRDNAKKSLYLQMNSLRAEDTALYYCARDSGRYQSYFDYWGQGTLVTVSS VL: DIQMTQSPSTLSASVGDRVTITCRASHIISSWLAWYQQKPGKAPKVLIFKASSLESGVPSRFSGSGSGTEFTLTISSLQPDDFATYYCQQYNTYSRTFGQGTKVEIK | T½ | min | 47 |
